target: RARalpha dAB dF;RXRalpha dAB (Mus musculus / Homo sapiens (Methods …, UniProt P11416;P19793 82-421;126-462, |)); test: fluorescence anisotropy; AM580 + CD3254; Fluorescence anisotropy: 20 mM Tris-HCl pH 7.5, 75 mM NaCl, 75 mM KCl, 2 mM CHAPS, 4 mM MgCl2, 2 mM TCEP, 10% glycerol, 0.5 nM Cy5-DNA, 4 uM ligands, 294 K; details: protein: recombinant;recombinant; tags: N-terminal His6 (pET15b); copies: 1;1; label: Cy5 on forward strand; 5' overhang 1 nt at both ends (so in the source)
Sequence (P11416 82-421, chain 1 of 2): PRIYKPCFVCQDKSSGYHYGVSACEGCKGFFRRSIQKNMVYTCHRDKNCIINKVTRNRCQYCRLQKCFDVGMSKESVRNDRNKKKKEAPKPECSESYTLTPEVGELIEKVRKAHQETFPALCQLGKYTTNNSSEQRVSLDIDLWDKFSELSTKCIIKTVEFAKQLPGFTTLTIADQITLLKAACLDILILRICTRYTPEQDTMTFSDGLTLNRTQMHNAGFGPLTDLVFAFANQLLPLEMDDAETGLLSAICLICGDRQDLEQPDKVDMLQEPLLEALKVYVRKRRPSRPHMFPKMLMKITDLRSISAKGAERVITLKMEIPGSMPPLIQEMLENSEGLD
Sequence (P19793 126-462, chain 2 of 2): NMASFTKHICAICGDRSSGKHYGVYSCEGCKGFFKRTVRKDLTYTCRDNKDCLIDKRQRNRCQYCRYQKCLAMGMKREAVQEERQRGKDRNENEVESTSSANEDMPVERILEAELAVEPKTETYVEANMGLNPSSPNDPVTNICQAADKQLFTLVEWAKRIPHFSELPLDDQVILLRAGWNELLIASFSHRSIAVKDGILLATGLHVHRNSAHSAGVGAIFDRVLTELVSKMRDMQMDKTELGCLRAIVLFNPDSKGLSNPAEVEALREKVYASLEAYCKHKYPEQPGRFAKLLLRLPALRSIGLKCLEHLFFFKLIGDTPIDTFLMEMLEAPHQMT
Experimental Endpoint: Kd (nM)
Entry rule: numbers only, all in nM.

Request: Look up and state reported Kd for IR0 Trim16 Cy5 (dsDNA) DNA 1: GCAGGGTCATGACCCCGC DNA 2: CGCGGGGTCATGACCCTG
Result: 3.8
